Would you kindly list growth for each of these compounds?
Test system: E. coli TESEC Mtb DapB
Experiment: growth (OD600 after 10 h); higher = more growth (less inhibition)
Conditions: arabinose induction (level): Low; compound 0.1 mM; raw OD600 reference: median of DMSO wells 0.227, cell-free background 0.041
Counter-ions that a name gives are not always drawn.
Numbers only.

Worked set:
Compound: O=P1(NCCCl)OCCCN1CCCl (stereo not given) [Ifosfamide]
growth: 0.222
//
Compound: CC[C@@H](C(N)=O)N1CCCC1=O [Levetiracetam]
growth: 0.229

Can you give me growth for all of these, one by one?
1. CCN(C)C(=O)Oc1cccc([C@H](C)N(C)C)c1 [Rivastigmine]
2. COc1cc2c(c(OC)c1OC)-c1ccc(OC)c(=O)cc1[C@@H](NC(C)=O)CC2 [Colchicine]
3. CCOC(=O)c1cncn1[C@H](C)c1ccccc1 [Etomidate]
4. COc1ccc(OC)c(C(O)C(C)N)c1 (stereo not given) [Methoxamine hydrochloride]
5. C=C1C[C@@H]2[C@H](CC[C@]3(C)C(=O)CC[C@@H]23)[C@@]2(C)C=CC(=O)C=C12 [Exemestane]
6. COc1ccc(C(=O)N2CCCC2=O)cc1 [Aniracetam]

Response line:
[0.281, 0.228, 0.228, 0.222, 0.109, 0.246]

Can you give me growth for all of these, one by one?
1. O=c1c2ccccc2[se]n1-c1ccccc1 [Ebselen]
2. CCCN1C[C@H](CSC)C[C@@H]2c3cccc4[nH]cc(c34)C[C@H]21 [Pergolide mesylate]

Response line:
0.249
0.234

----------
Would you kindly list growth for each of these compounds?
Tested on: E. coli TESEC Mtb Alr
Assay: growth (OD600 after 10 h); higher = more growth (less inhibition)
Conditions: arabinose 10000000 nM; compound 0.1 mM; raw OD600 reference: median of DMSO wells 0.146, cell-free background 0.041
Counter-ions that a name gives are not always drawn.

Worked set:
Compound: CC(=O)OC1CN2CCC1CC2 (stereo not drawn) [Aceclidine Hydrochloride]
Measured On: E. coli TESEC Mtb Alr
Recorded Result: 0.166

Compound: NCC(CC(=O)O)c1ccc(Cl)cc1 (racemic) [Baclofen (R,S)]
Measured On: E. coli TESEC Mtb Alr
Recorded Result: 0.15

Compound: O=P1(NCCCl)OCCCN1CCCl (stereo not drawn) [Ifosfamide]
Measured On: E. coli TESEC Mtb Alr
Recorded Result: 0.137

Compound: Oc1cc(Cl)ccc1Oc1ccc(Cl)cc1Cl [Triclosan]
Measured On: E. coli TESEC Mtb Alr
Recorded Result: 0.0411

Compound: C[C@]12C/C(=C/O)C(=O)C[C@@H]1CC[C@@H]1[C@@H]2CC[C@@]2(C)[C@H]1CC[C@]2(C)O [Oxymetholone]
Measured On: E. coli TESEC Mtb Alr
Recorded Result: 0.177

Can you give me growth for all of these, one by one?
1. CCC(=O)O[C@H]1CC[C@H]2[C@@H]3CCC4=CC(=O)CC[C@]4(C)[C@H]3CC[C@]12C [Testosterone propionate]
2. O=[N+]([O-])O[C@H]1CO[C@H]2[C@@H]1OC[C@H]2O[N+](=O)[O-] [Isosorbide dinitrate]
3. CN1[C@@H]2C[C@@H](OC(=O)[C@H](CO)c3ccccc3)C[C@H]1[C@@H]1O[C@@H]12 [Scopolamine hydrochloride]

Response line:
0.117
0.159
0.157
